system_name: RARγ (Homo sapiens)
Sequence (P13631 whole entry): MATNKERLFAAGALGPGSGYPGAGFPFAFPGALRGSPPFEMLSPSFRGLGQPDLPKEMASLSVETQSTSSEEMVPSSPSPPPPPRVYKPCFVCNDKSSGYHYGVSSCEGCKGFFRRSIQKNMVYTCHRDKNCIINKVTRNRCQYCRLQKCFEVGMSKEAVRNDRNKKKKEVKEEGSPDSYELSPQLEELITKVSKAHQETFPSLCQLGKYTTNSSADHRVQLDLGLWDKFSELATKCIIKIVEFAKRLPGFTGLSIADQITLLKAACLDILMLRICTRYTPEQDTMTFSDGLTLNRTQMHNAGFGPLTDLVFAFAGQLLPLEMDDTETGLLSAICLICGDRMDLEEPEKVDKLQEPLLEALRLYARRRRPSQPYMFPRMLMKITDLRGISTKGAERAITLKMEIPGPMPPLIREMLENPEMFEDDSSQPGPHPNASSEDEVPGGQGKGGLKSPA
procedure_text: Agonist activity on RARγ, dual luciferase reporter gene assay in transfected HEK-293 cells
condition_summary: HEK-293 cells, 24 h incubation, firefly/Renilla luciferase signal
measurement_kind: EC50 (nM)

Below are worked cases with known answers.
molecule=C[Si](C)(C)c1cc(-c2cc(-c3ccc(C(=O)O)cc3)ccc2OCCO)ccc1N1CCCC1 test_result=0.88
molecule=C[Si](C)(C)c1cc(-c2cc(-c3ccc(C(=O)O)cc3)ccc2OCCCO)ccc1N1CCCC1 test_result=0.77

a = C[Si](C)(C)c1cc(-c2cc(-c3ccc(C(=O)O)cc3)ccc2OCCCCO)ccc1N1CCCC1
b = C[Si]1(C)CC[Si](C)(C)c2cc(-c3cc(-c4ccc(C(=O)O)cc4)ccc3OCCO)ccc21
Pick the one with the larger EC50: a vs b Let me know the label of the one you choose. a
(a: 9.08 nM, b: 1.05 nM)

Data origin, for the record: patent US20240217992A1
